Biological target: T1, IFNAR2/Fc fusion protein (extracellular domain of the human IFNAR2 receptor chain fused to the hinge, CH2 and … (human, UniProt P48551 27-243))
T1 construct: extracellular domain; Expressed in CHO cells, purified on protein A, captured on plates by mouse anti-human IgG1 mAb CDG5-AA9; also called IFNAR2-ectodomain/Fc fusion protein; IFNAR/Fc; not shown: human IgG1 heavy chain constant region: hinge, CH2 and CH3 domains
T1 sequence (looked up): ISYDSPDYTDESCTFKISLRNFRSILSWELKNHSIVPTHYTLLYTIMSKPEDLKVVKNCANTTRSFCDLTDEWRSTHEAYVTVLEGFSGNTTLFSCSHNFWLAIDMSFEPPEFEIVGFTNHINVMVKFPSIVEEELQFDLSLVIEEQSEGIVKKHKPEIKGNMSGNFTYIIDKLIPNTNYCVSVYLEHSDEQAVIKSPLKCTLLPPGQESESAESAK
Test: ELISA on captured IFNAR2/Fc
assayEndpoint: concentration without binding, fold over the w.t. his-IFN-beta EC50 (fold)
The reply should be a number in fold, with the unit left off.

stdin: Annotate the binder his tagged-interferon-beta alanine substitution mutant A2 (ligand, Tested as conditioned medium of EBNA 293 cells) SGGHHHHHHSSGDDDDKMSYNLLGFLQRSSNAACAALLAALNGRLEYCLKDRMNFDIPEEIKQLQQFQKEDAALTIYEMLQNIFAIFRQDSSSTGWNETIVENLLANVYHQINHLKTVLEEKLEKEDFTRGKLMSSLHLKRYYGRILHYLKAKEYSHCAWTIVRVEILRNFYFINRLTGYLRN with its measured concentration without binding, fold over the w.t. his-IFN-beta EC50.
stdout: 500
